Test system: OVCAR-8 ovarian
Assay comment: NCI-60 one-dose screen, 48 h (100 = growth as untreated, 0 = no growth, -100 = all killed)
Assay context: 10 µM unless noted
About 83,000 compounds went through this panel and 20% of them were active in at least one assay; those are over-represented in the sample as a whole.
Reported growth by item:
Assay readout: growth (%)

Compound	Assay readout	Recorded result
Cc1ccnc(Nc2nc3ccccc3[nH]2)n1	growth	106
Cc1onc(-c2c(F)cccc2Cl)c1-c1ncc(-c2ccc(Br)cc2)o1	growth	38.3
CCCC1OC(c2ccco2)OCC1CC (stereo not given)	growth	101
Nc1cc(N)ncn1	growth	116
CCNc1ccc2ccccc2c1N=Nc1ccc(N=Nc2ccccc2)cc1	growth	104
O=C(O)CC1=CCCCC1	growth	104
O=c1cc(Cl)nc2ccccn12	growth	110
C=COC(=O)CCOCC(CC)CCCC (stereo not given)	growth	114
NC(=O)NCCO	growth	99.8
O=C(NCc1ccccc1)/C(=C/c1ccccc1)NC(=O)c1ccccc1	growth	97.1
CCOC(=N)CC(=O)Nc1cccc(C)c1Cl	growth	99.4
O=C(c1ccccc1O)N1CCCC1	growth	99.3
COc1cccc(C(=O)NNC(=O)c2cccc3ccccc23)c1	growth	105
COc1ccc(C2CCCCC2=O)cc1 (stereo not given)	growth	103
CCC(C)c1c(N)n(S(=O)(=O)c2ccc(C)cc2)oc1=O (stereo not given)	growth	96.6
NNC(=O)N/N=C1\C(=O)N(c2nccs2)C(=O)C(=O)C1c1nc2ccccc2s1 (stereo not given)	growth	95
O=Cc1ccc(F)cc1	growth	103
O=C(NC1CCCCC1)c1ccc(Cl)cc1	growth	105
C1C[S+]2CC[S+]1CC2	growth	96
Cc1ccc(S(N)(=O)=O)cc1Cl	growth	105

* * *

Test system: M14 melanoma
Assay comment: NCI-60 one-dose screen, 48 h (100 = growth as untreated, 0 = no growth, -100 = all killed)
Assay context: 10 µM unless noted
Protocol: Growth inhibition of the M14 human tumor cell line is measured as a screen for anti-cancer activity. Cells are grown in 96 well plates and exposed to the test compound for 48 hours. Compounds are tested at a single concentration, which is 10^-5 M for most compounds. The reported endpoint is percent growth (GI% or GIPRCNT), where numbers from 0 - 100% represent growth inhibition, and numbers from -100% - 0 represent cell death. For example, a value of 40 represents 60% growth inhibition. […]
Compounds without any hit were thinned out: in the full panel of roughly 83,000, 20% have a hit.

Compound	Study system	Unit of measure	growth
CCOC(=O)C1(N)CCCCC1	M14 melanoma	%	93.8
C[n+]1cc2cc3c(cc2c2ccccc21)OCO3	M14 melanoma	%	81.4
CCCCCCCCCCCCSC1=C(Cl)C(=O)C(OC)=C(OC)C1=O	M14 melanoma	%	64.1
CC(=O)C1C(=O)C(=O)N(c2ccc(Cl)c(Cl)c2)C1=O (stereo not given)	M14 melanoma	%	93.7
COC1=C(OC)C(=O)C(SC/C=C(\C)CCCC(C)CCCC(C)CCCC(C)C)=CC1=O (stereo not given)	M14 melanoma	%	26.9
C=C1SC(=Nc2c(C)cccc2C)N(c2nc(Cl)nc(Cl)n2)C12CCCCC2	M14 melanoma	%	97.9
Nc1ccc2ccccc2c1-c1c(N)ccc2ccccc12	M14 melanoma	%	19.5
BrCc1cccc(C[P+](c2ccccc2)(c2ccccc2)c2ccccc2)c1	M14 melanoma	%	51.4
O=S(=O)(O)c1cccc2cccnc12	M14 melanoma	%	106
CCOc1ccc(NC(=S)N2CCC(CCCC3CCN(C(=S)Nc4ccc(OCC)cc4)CC3)CC2)cc1	M14 melanoma	%	97.9
O=C(OCC1CCCO1)c1ccc([N+](=O)[O-])cc1 (stereo not given)	M14 melanoma	%	101
C/C(O)=C(/C=N\C(=S)Nc1ccc(S(=O)(=O)Nc2nccs2)cc1)C(=O)Nc1ccccc1C	M14 melanoma	%	100
CC(C)NC(=O)OCc1c(COC(=O)NC(C)C)c(-c2ccc(Cl)cc2)n2c1CCC2	M14 melanoma	%	33.2
C=C1C(=O)C2CCN1CC2	M14 melanoma	%	92.3
C=C(c1ccc(N(C)C)cc1)c1ccc(N(C)C)cc1	M14 melanoma	%	-47.2

* * *

Test system: EKVX NSCLC
Assay comment: NCI-60 one-dose screen, 48 h (100 = growth as untreated, 0 = no growth, -100 = all killed)
Assay context: 10 µM unless noted
Compounds without any hit were thinned out: in the full panel of roughly 83,000, 20% have a hit.

Substance smiles	Study system	growth / %
Cc1ccc2nc(-c3ccc(N=Cc4ccccc4O)cc3)sc2c1	EKVX NSCLC	90.3
NS(=O)(=O)c1cc(=O)[nH]c(=O)[nH]1	EKVX NSCLC	112
CCCCNC(=O)c1ccc(OCC)cc1	EKVX NSCLC	103
CCN(C(=O)Nc1ccccc1Cl)c1ccccc1	EKVX NSCLC	111

* * *

Test system: K-562 leukemia
Assay comment: NCI-60 one-dose screen, 48 h (100 = growth as untreated, 0 = no growth, -100 = all killed)
Assay context: 10 µM unless noted
This is part of a sample that, as a whole, favours compounds with a hit. Of some 83,000 tested, about 20% had one in any assay. Calls of active or inactive are those of the source. How the source made its calls: active means growth percent below 10; inactive means the rest.

Compound	growth
CCN(C(C)=O)c1ccc([N+](=O)[O-])cc1	107% (inactive)
O=C(O)Cc1cccc2ccccc12	96.4% (inactive)
CCNc1ncnc2[nH]ncc12	119% (inactive)
CC(=O)C[n+]1ccc(C)cc1Sc1ccccc1C	102% (inactive)
Cc1ccc(S(=O)(=O)Oc2ccc3sc4c(CO)ccc(NCCN(C)C)c4c(=O)c3c2)cc1	-61.4% [100 µM] (active)
O=C(O)C1CSC(c2ccccc2)N1 (stereo unspecified)	128% (inactive)
CCCC(=O)c1cccs1	112% (inactive)
NNc1ncnc2c1ncn2C1OC(CO)C(O)C1O (stereo unspecified)	30.4% (inactive)
C/C(=N\Nc1ccc([N+](=O)[O-])cc1[N+](=O)[O-])c1ccc(Br)cc1	98.7% (inactive)
CC(C)c1ccccc1NC(=O)N1CCC(C(C)C)CC1	99.4% (inactive)
N=C(N)c1nn(C2OC(CO)C(O)C2O)c2nc[nH]c(=O)c12 (stereo unspecified)	-5.78% (active)

* * *

System: HCT-15 colon
Assay comment: NCI-60 one-dose screen, 48 h (100 = growth as untreated, 0 = no growth, -100 = all killed)
Assay context: 10 µM unless noted
Compounds without any hit were thinned out: in the full panel of roughly 83,000, 20% have a hit.
Assay readout: growth (%)

Molecule	Study system	Recorded result
Cc1cc(CO)c(O)c(CO)c1	HCT-15 colon	102
CC1(C)OC2C(CO)OC(n3ccc(=O)[nH]c3=O)C2O1 (centres undefined)	HCT-15 colon	102
NC(=O)N1CCOCC1	HCT-15 colon	106
C=C1C(=O)C2CCN1CC2	HCT-15 colon	105

* * *

Reported growth by item:
Test system: HS 578T breast
Assay comment: NCI-60 one-dose screen, 48 h (100 = growth as untreated, 0 = no growth, -100 = all killed)
Assay context: 10 µM unless noted
The panel holds about 83,000 compounds, 20% with a hit somewhere; the sample as a whole holds those more often. Active and inactive are the calls of the source. How the source made its calls: active means growth percent below 10; inactive means the rest.

Molecule	growth
O=S(=O)(O)c1ccc(O)c(C2CCCCC2)c1	116% (inactive)
COC(=O)C1=C(C)C(=O)CC1	104% (inactive)
Nc1ccc(F)c(Cl)c1F	96.4% (inactive)
O=C1C=Cc2ccccc2/C1=C/c1[nH]c(=O)[nH]c1O	-6.84% (active)
CCCOCc1cn[nH]n1	114% (inactive)
OC1Cc2ccccc2C1	96% (inactive)
O=C(O)CSCC(=O)Nc1cc(C(F)(F)F)ccc1Cl	101% (inactive)
Clc1ccc(-c2noc(/C=C\c3ccccc3)n2)cc1	119% (inactive)
Oc1cccnc1CN1CCCC1	104% (inactive)
CN(C(=S)S(=O)(=O)C12CC3CC(CC(C3)C1)C2)c1ccccc1	85% (inactive)
CC1(C)OC(=O)CC1=O	96.6% (inactive)
CC(=O)c1cccs1	99.2% (inactive)
O=C(O)Cc1ccccn1	109% (inactive)
COc1cccc(N=CNc2cccc(OC)c2)c1	105% (inactive)
CC(=O)CSc1ncnc2nc[nH]c12	116% (inactive)
Oc1cc2ccccc2c(-c2c(O)c(O)cc3ccccc23)c1O	33.9% (inactive)
Nc1ccn(C2CC(N)C(CO)O2)c(=O)n1 (stereo not drawn)	114% (inactive)
CCCCNc1ccc(-c2ccc(NCCCC)cc2)cc1	84.2% (inactive)
C=CC(=O)OC1CCC(C(C)(C)CC)CC1 (stereo not drawn)	101% (inactive)
Cc1c(Cl)cccc1NC(=S)NC(=O)c1ccccc1	109% (inactive)
NC(=O)N1CCOCC1	113% (inactive)
COc1nc2ccccc2s1	91% (inactive)
CC(=O)C[n+]1ccc(C)cc1Sc1ccccc1C	95.7% (inactive)
CCOC(=N)CC(=O)Nc1cccc(C)c1Cl	105% (inactive)
CC(=O)C1C(=O)C(=O)N(c2cccc([N+](=O)[O-])c2)C1=O (stereo not drawn)	93.8% (inactive)
Cc1cccc2ccccc12	107% (inactive)
O=S(=O)(c1ccc(NC(=S)NCc2cccnc2)cc1)N1CCCCC1	70.3% (inactive)
CCOC(=O)CO	109% (inactive)
CC1(C)OC2C(CO)OC(n3ccc(=O)[nH]c3=O)C2O1 (stereo not drawn)	91.8% (inactive)
CC1(C)CC(=O)C=C(N)C1	77.9% (inactive)
C1CCc2onc(-c3noc4c3CCCCC4)c2CC1	115% (inactive)
C=CCNC(=S)N/C=C(/C(=O)c1ccccc1)c1ccccc1	103% (inactive)
NC(CSSCC(N)C(=O)O)C(=O)O (stereo not drawn)	50.3% (inactive)
CSc1nsc(N)n1	90.7% (inactive)
CC(CC(CCC(=O)O)(c1ccccc1)c1ccccc1)N(C)C (stereo not drawn)	106% (inactive)
CN(C)c1ccc2c(N(C)C)cc(N(C)C)nc2c1	100% (inactive)
Clc1cccc(Cl)c1CSc1nc2ccccc2n2cccc12	113% (inactive)
O=S(Cc1ccccc1)/C(=C/NC(=S)Nc1cc(Cl)ccc1Cl)c1ccccc1 (stereo not drawn)	102% (inactive)

Source of measurements: PubChem BioAssay (NCI)
